Entry source: the supplement of paper PMC11537057

Tested on: A549 infected with HSV-1
Assay: cell number in HSV-1-infected wells relative to infected DMSO wells (H2B-RFP signal); higher = more surviving cells (uninfected or antiviral-protected wells give about 200%; low = toxicity)
Conditions: 10 µM; 48 h; MOI: 0.1
Where a name gives a salt, the structure may show the parent alone. In all, about 1,700 compounds were measured (“cell number in HSV-1-infected wells relative to infected DMSO wells (H2B-RFP signal)”: median about 100, highest 2% from about 140 on). The sample holds the highest values, similar compounds and a random draw of the others, so the mix is not that of the screen.
attribute.measured: cell number in HSV-1-infected wells (%)
Report only the number, with the unit % understood.

Endpoint output: cell number in HSV-1-infected wells of O=C(O)c1cn(-c2ccc(F)cc2)c2cc(N3CCNCC3)c(F)cc2c1=O [Sarafloxacin HCl] . Value?
151

Consider next the molecule C1N2CN3CN1CN(C2)C3 in the same way.
124

Consider next the molecule C[N+](C)(C)CCO.O=C([O-])C(O)C(O)C(=O)O (stereo not given) [Choline bitartrate] in the same way.
124

Consider next the molecule CN1CCN(c2cc3c(cc2F)c(=O)c(C(=O)O)cn3-c2ccc(F)cc2)CC1 [Difloxacin HCl] in the same way.
129

Consider next the molecule CCN1CCN(c2cc3c(cc2F)c(=O)c(C(=O)O)cn3C2CC2)CC1 in the same way.
147
